- SYSTEM_UNDER_TEST: PI3Kβ (Homo sapiens, UniProt P42338)
- Construct: His tag (pFastbac HTa vector) (N); FLAG (N); made in house; host or cells: Sf21 insect cells (baculovirus)
- Sequence (P42338 whole entry): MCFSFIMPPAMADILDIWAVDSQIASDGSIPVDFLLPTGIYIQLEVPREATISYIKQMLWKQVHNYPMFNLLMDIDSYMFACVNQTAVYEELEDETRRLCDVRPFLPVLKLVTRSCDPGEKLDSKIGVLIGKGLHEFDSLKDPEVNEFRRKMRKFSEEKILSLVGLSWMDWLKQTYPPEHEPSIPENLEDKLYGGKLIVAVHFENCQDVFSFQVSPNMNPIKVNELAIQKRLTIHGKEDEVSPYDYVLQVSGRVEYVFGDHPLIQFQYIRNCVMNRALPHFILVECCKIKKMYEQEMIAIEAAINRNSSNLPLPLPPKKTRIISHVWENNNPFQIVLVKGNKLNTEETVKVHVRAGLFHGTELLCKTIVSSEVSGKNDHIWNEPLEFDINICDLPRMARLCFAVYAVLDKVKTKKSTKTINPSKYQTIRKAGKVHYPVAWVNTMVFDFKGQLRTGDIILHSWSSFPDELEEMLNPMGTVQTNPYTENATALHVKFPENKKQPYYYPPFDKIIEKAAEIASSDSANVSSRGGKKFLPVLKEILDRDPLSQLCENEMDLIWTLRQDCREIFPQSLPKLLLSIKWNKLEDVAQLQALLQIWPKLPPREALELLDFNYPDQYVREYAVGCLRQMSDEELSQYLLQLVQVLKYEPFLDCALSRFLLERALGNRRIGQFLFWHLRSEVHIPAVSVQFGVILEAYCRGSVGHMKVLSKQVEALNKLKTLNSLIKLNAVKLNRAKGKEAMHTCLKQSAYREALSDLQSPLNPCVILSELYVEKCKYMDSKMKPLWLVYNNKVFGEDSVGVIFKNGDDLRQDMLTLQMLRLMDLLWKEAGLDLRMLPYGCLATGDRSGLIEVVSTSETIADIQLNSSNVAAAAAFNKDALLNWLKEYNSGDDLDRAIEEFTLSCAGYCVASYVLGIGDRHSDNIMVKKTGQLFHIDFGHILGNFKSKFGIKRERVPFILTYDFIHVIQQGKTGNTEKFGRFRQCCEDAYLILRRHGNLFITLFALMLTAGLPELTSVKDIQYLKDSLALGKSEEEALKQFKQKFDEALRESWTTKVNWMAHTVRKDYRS
- Sequence (P27986 whole entry partner): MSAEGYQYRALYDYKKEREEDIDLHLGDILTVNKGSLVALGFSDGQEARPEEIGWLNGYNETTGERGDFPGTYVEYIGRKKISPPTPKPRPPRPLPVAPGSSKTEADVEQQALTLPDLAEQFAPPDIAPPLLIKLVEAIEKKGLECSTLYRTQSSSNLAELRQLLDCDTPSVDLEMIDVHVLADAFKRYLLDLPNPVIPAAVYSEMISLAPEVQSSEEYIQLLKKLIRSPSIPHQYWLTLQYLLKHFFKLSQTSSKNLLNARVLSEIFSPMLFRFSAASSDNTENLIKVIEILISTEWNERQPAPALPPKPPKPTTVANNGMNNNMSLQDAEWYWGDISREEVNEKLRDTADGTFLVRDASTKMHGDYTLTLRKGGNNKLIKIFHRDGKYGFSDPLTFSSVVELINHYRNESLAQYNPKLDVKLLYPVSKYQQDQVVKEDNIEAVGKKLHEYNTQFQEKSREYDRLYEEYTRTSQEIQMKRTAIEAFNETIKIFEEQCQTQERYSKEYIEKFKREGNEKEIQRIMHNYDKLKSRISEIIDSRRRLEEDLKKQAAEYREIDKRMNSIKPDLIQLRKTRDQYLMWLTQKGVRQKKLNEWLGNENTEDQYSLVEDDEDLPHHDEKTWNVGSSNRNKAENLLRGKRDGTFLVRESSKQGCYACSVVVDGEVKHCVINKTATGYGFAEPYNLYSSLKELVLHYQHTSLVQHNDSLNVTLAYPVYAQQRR
- TEST_DETAILS: Biochemical assay of PI3K potency and selectivity using 20 μM ATP, Beta
- TEST_PARAMETERS: read-out: Beta: percent activity remaining at 100 μM; 20 μM ATP; 100 μM compound did not inhibit by at least 50%
ENDPOINT: remaining activity at 100 µM (%)
Answers are plain numbers, in %.

The examples below pair each entry with its known result.
1) O=c1c2c(F)cccc2nc(CSc2ncnc3[nH]cnc23)n1-c1ccccc1Cl: 69
2) O=c1c2ccccc2nc(CSc2ncnc3[nH]cnc23)n1-c1ccccc1: 70
3) O=c1c2ccccc2nc(CSc2ncnc3[nH]cnc23)n1-c1ccc(Cl)cc1: 69
4) O=c1c2ccccc2nc(CSc2ncnc3[nH]ncc23)n1-c1ccccc1Cl [Compound D-999, reference compound]: 71

Read the next record carefully.
Req: Please look at this molecule and report its remaining activity at 100 µM: O=c1c2cc(Cl)ccc2nc(CSc2ncnc3[nH]cnc23)n1-c1ccccc1Cl
Resp: 69
